B1: SH3 and PX domain-containing protein 2B, residues 155 to 209; numbered along this chain, A1X283 (parent)
chain: EQYVVVANYQKQESSEISLSVGQVVDIIEKNESGWWFVSTAEEQGWVPATCLEGQ

# Variants of: B1
# Assay text: abundance fitness (aPCA) (normalised: wild type 0, dead -1); higher = more abundant; growth selection in yeast, the domain comes from the species named
# Assay context: Homo sapiens
Binary classification by abundance fitness, with -0.1 as an inclusive lower bound for Fulfilled; all other cases are Not fulfilled.

Variant annotation: V5W
Class label: Not fulfilled

IN: Given E1I , state whether its abundance fitness is at least -0.1.
OUT: Not fulfilled

IN: Given Y9I , state whether its abundance fitness is at least -0.1.
OUT: Not fulfilled

IN: Given W36S , state whether its abundance fitness is at least -0.1.
OUT: Not fulfilled

IN: Given Q12N , state whether its abundance fitness is at least -0.1.
OUT: Not fulfilled

IN: Given E32A , state whether its abundance fitness is at least -0.1.
OUT: Fulfilled

IN: Given I27K , state whether its abundance fitness is at least -0.1.
OUT: Not fulfilled
